Listing of recorded pIC50 by entry.
# Target: Protein arginine N-methyltransferase 1 (Homo sapiens)
# Sequence (Q99873 whole entry): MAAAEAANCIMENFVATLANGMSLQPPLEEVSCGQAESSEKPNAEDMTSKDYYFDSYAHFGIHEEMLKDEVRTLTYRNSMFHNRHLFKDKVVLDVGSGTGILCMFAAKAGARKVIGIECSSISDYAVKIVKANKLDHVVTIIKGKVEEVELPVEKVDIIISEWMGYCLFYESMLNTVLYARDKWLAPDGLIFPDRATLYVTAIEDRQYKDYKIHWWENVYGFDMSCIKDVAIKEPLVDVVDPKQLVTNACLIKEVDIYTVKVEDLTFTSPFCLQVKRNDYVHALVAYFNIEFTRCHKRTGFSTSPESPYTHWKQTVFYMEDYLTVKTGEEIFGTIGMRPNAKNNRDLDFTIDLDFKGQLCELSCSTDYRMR
# Method Summary: Inhibition of His6x-tagged PRMT1-mediated protein arginine methylation expressed in Escherichia coli BL21 (DE3) using H4(1-20) and [14C]-SAM by scintillation counting
# pIC50: negative log10 of molar concentration; output just the value

q: Record request: pIC50 value, item O=S(=O)(O)c1cc(O)c2c(/N=N/c3c(S(=O)(=O)O)cc4cc(S(=O)(=O)O)cc(O)c4c3O)cc(S(=O)(=O)O)cc2c1
a: 4.14

q: Record request: pIC50 value, item Cc1ccc(C(=O)Nc2ccc(S(=O)(=O)O)c3cc(S(=O)(=O)O)cc(S(=O)(=O)O)c23)cc1NC(=O)c1cccc(NC(=O)Nc2cccc(C(=O)Nc3cc(C(=O)Nc4ccc(S(=O)(=O)O)c5cc(S(=O)(=O)O)cc(S(=O)(=O)O)c45)ccc3C)c2)c1
a: 5.27

###

# Target: Protein arginine N-methyltransferase 3 (Homo sapiens, UniProt O60678)
# Sequence (O60678 whole entry): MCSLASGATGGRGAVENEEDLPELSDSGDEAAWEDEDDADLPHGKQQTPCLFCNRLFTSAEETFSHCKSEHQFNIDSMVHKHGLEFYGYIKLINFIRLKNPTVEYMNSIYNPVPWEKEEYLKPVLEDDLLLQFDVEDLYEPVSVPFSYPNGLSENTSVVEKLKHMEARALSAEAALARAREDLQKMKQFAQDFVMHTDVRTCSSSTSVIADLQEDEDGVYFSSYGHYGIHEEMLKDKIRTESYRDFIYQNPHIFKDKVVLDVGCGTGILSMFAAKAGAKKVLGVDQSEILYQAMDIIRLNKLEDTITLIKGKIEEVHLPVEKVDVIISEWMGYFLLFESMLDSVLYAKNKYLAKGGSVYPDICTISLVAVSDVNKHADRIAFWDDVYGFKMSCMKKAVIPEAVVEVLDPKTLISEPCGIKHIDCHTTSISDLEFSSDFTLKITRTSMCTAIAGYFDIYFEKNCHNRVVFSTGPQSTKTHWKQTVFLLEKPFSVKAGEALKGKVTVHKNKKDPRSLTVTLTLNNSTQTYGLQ
Parameter: pIC50
# pIC50: negative log10 of molar concentration; output just the value

q: Item CC(=O)Nc1ccc(/N=N/c2c(S(=O)(=O)O)cc3cc(NC(=O)Nc4ccc5c(O)c(/N=N/c6ccccc6)c(S(=O)(=O)O)cc5c4)ccc3c2O)cc1 with Protein arginine N-methyltransferase 3 (Homo sapiens, UniProt O60678) - pIC50?
a: 5.15
